pKd listing for selected binders.
target_or_system: T1, human CD40-Fc protein (human, UniProt P25942 21-193)
T1 construct: also called human CD40-Fc fusion protein; CD40-Fc antigen; not shown: Fc part
T1 sequence (P25942 21-193 limits assumed): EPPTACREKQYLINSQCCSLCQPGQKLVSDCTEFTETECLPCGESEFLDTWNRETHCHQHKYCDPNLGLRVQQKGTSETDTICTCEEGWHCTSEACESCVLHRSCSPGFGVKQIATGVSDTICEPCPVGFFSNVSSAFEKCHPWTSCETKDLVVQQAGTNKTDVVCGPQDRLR
protocol_text: BLI (ForteBio), CD40-Fc on AHQ sensor, 100 nM Fab in solution, monovalent, 1:1 model
To interpret pKd, take it as minus log10 of a concentration measured in moles per litre.

# example entries with known answers
ADI-55145 Fab (Fab, V domains shown) VH: QVQLVESGGGVVQPGRSLRLSCAASGFTFEKYGMHWVRQAPGKGLEWVAVISYEGTSKYYADSVKGRFTISRDNSKNTLYLQMNSLRAEDTAVYYCARDTSRGHDIWGQGTMVTVSS VL: EIVLTQSPGTLSLSPGERATLSCQASQSVSYNYLAWYQQKPGQAPRLLIYGASSRNNGIPDRFSGSGSGTDFTLTISRLEPEDFAVYYCQQYSDYPPFTFGGGTKVEIK : 8.23
ADI-55147 Fab (Fab, V domains shown, also called Fab fragment of ADI-55147) VH: QVQLVESGGGVVQPGRSLRLSCAASGFTFGSYGMHWVRQAPGKGLEWVAVISYEGVKKYYADSVKGRFTISRDNSKNTLYLQMNSLRAEDTAVYYCARDTSRGHDIWGQGTMVTVSS VL: EIVLTQSPGTLSLSPGERATLSCRASQSVSYDYLAWYQQKPGQAPRLLIYGASARANGIPDRFSGSGSGTDFTLTISRLEPEDFAVYYCQQYADYPPFTFGGGTKVEIK : 8.06
ADI-55142 Fab (Fab, V domains shown) VH: QVQLVESGGGVVQPGRSLRLSCAASGFTFEKYGMHWVRQAPGKGLEWVAVISYEGEKKYYADSVKGRFTISRDNSKNTLYLQMNSLRAEDTAVYYCARDTSRGHDIWGQGTMVTVSS VL: EIVLTQSPGTLSLSPGERATLSCRASQSVSYSYLAWYQQKPGQAPRLLIYGASSRANGIPDRFSGSGSGTDFTLTISRLEPEDFAVYYCSDYADYPPFTFGGGTKVEIK : 8.56
ADI-47720 Fab (Fab, V domains shown) VH: EVQLVESGGGLVQPGRSLRLSCAASGFTFDDYAMHWVRQAPGKGLEWVSGISWSSGSIGYADSVKGRFTISRDNAKNSLYLQMNSLRAEDTAVYYCAKDPTATTGARGYFDLWGRGTLVTVSS VL: DIQMTQSPSSVSASVGDRVTITCRASQGISSWLAWYQQKPGKAPKLLIYAASSLQSGVPSRFSGSGSGTDFTLTISSLQPEDFATYYCQQRASFPPTFGGGTKVEIK : 6.82

We now examine a further binder.
Answer with reported pKd of ADI-55168 Fab (Fab, V domains shown) VH: EVQLVESGGGLVQPGRSLRLSCAASGFTFDTYAMHWVRQAPGKGLEWVSGISWSSGSIHYADSVKGRFTISRDNAKNSLYLQMNSLRAEDTAVYYCAKDPTATTGARGYFDLWGRGTLVTVSS VL: DIQMTQSPSSVSASVGDRVTITCEASQVISSWLAWYQQKPGKAPKLLIYAASYLQSGVPSRFSGSGSGTDFTLTISSLQPEDFATYYCQQHSSFPPTFGGGTKVEIK
9.01

From: patent US20260265391A1
